assay target: T1, ALK7-Fc comprising protein
T1 construct: It is probably the human protein
T1 sequence (Q8NER5 22-113): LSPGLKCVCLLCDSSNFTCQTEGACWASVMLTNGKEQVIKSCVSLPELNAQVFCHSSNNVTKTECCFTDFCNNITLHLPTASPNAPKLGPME
experiment description: SPR (Biacore T100/T200) at 25 °C, antibody captured on FAB chip, ALK7-Fc analyte, 1:1 fit
Recorded koff values for a group of binders are listed next.
Number in s⁻¹, nothing else.

L02 (antibody, V domains shown, also called mAb L02) VH: QVQLVQSGAEVKKPGASVKVSCKASGYTFAGYNMHWVRQAPGQGLEWVGIINPNSGWTNYAQKFQGRVTMTRDTSVSAAYMELSRLRSDDTAVYYCARDPVGARYEVFDYWGQGTLVTVSS VL: EIVMTQSPATLSVSPGERATLSCRASQSVSSALAWYQQKPGQAPRLLIYSAFTRASGIPARFSGSGSGTEFTLTISSLQSEDFAVYYCQQAWAFPLTFGGGTKVEIK : 1.21e-05

Item: C03 (antibody, V domains shown, also called mAb C03; ALK7 mAb C03) VH: QLQLQESGPGLVKPSETLSLTCTVSGGSISSSAYYWAWIRQPPGKGLEWIGSIYLSGSTTYNPSLKSRVTISVDTSKNQFSLKLSSVTAADTAVYYCARDGRYQSRSPDYYYGMDVWGQGTTVTVSS VL: EIVLTQSPGTLSLSPGERATLSCKASQSVSSSYLAWYQQKPGQAPRLLIYGAFSRANGIPDRFSGSGSGTDFTLTISRLEPEDFAVYYCQQLVSYPFTFGGGTKVEIK | koff: 1.27e-05

Item: K02 (antibody, V domains shown, also called mAb K02; KO2) VH: QVQLVQSGAEVKKPGSSVKVSCKASGGTFSSSAIGWVRQAPGQGLEWMGGIWPIFGTALYAQKFQGRVTITADESTSTAYMELSSLRSEDTAVYYCARDPREYIHVFDIWGQGTMVTVSS VL: DIQMTQSPSSLSASVGDRVTITCRASQSISSYLNWYQQKPGKAPKLLIYGASSLQSGVPSRFSGSGSGTDFTLTISSLQPEDFATYYCQQAYSFPWTFGGGIKVEIK | koff: 0.000291
